B1: Zinc finger MYM-type protein 3, residues 405 to 444; numbered along this chain, Q14202 (parent)
chain: DATRCSICQKTGEVLHEVSNGSVVHRLCSDSCFSKFRANK

# Variants of: B1
# assay name: abundance fitness (aPCA) (normalised: wild type 0, dead -1); higher = more abundant; growth selection in yeast, the domain comes from the species named
# test context: Homo sapiens
Lab note: compare abundance fitness against -0.1. Equal or greater, write met. Smaller, write not met.

Please tell me: is the variant V23R at or over -0.1 in terms of abundance fitness? met

// next record V18W not met

// next record S29F not met

// next record A38R not met

// next record E13N not met

// next record N20G not met

// next record S29M not met

// next record V14H not met

Others:
Please tell me: is the variant C5P at or over -0.1 in terms of abundance fitness? not met

// next record S22P met

// next record G21R not met

// next record A2R met

The values you see were collected from the Human Domainome abundance scans (Beltran et al. 2025).
